Where these numbers come from: paper PMC3184176

For each record, write down the corresponding pKd.
experimental-system: T1, FL-Pot1 (Schizosaccharomyces pombe, UniProt O13988 1-555)
T1 sequence: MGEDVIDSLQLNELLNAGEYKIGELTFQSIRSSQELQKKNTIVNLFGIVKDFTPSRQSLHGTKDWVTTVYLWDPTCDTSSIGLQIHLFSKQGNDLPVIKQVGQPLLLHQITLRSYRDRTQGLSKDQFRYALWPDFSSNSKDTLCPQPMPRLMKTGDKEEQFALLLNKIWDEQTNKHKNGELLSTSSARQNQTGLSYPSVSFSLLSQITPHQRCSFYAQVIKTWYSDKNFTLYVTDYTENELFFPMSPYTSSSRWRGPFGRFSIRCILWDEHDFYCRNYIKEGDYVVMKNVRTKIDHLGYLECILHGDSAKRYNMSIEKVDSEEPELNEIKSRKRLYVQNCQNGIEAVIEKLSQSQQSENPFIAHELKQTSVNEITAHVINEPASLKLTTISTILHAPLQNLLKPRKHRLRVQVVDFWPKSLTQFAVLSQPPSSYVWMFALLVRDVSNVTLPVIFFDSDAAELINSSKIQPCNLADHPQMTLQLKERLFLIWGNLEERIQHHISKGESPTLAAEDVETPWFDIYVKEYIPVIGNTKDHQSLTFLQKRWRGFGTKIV
assay-text: EMSA
Answers are plain numbers, as −log10 of the molar value.

[
  {
    "binder": "GGTTACTTTTTTTTT (ssDNA) [6mer_T9]",
    "pKd": 11.59
  },
  {
    "binder": "GGTTACTTTTTT (ssDNA) [6mer_T6]",
    "pKd": 11.49
  },
  {
    "binder": "GGTTACGGTTACGGTTA (ssDNA) [17mer]",
    "pKd": 11.64
  }
]

Please report pKd for every entry that follows.
1. GGTTACGGTTACGGTTAC (ssDNA) [18mer]
2. GGTTACACGGTTACACGGT (ssDNA) [15mer_2xAC]
3. GGTTACGGTTACG (ssDNA) [13mer]
4. GGTTACCCAATG (ssDNA) [6mer_6 comp]
5. TTTTTTTTTTTTTTT (ssDNA) [T15]

[11.42, 11.49, 11.64, 11.02, 8.07]

Please report pKd for every entry that follows.
1. GGTTACGGTTACGGT (ssDNA) [15mer]
2. CGTTTGCCAATGCCA (ssDNA) [15 comp GTT]
3. GGTTACGGTTAC (ssDNA) [12mer]
4. GGTTACCCAATGCCA (ssDNA) [6mer_9 comp]

1. 11.66
2. 7.97
3. 11.55
4. 11.42

Please report pKd for every entry that follows.
1. GGTUACGGTTACGGT (ssDNA, U at 4 = deoxyuridine) [15_T4U]
2. GGTTACGGTTACGG (ssDNA) [14mer]
3. GGUTACGGTTACGGT (ssDNA, U at 3 = deoxyuridine) [15_T3U]
4. GGTTACGGTTACGGTT (ssDNA) [16mer]

[11.52, 11.62, 11.59, 11.66]
